- Tested on: Epidermal growth factor receptor (Homo sapiens), P00533 [L858R,T790M,C797S]
- Sequence (P00533 whole entry T790M/C797S/L858R): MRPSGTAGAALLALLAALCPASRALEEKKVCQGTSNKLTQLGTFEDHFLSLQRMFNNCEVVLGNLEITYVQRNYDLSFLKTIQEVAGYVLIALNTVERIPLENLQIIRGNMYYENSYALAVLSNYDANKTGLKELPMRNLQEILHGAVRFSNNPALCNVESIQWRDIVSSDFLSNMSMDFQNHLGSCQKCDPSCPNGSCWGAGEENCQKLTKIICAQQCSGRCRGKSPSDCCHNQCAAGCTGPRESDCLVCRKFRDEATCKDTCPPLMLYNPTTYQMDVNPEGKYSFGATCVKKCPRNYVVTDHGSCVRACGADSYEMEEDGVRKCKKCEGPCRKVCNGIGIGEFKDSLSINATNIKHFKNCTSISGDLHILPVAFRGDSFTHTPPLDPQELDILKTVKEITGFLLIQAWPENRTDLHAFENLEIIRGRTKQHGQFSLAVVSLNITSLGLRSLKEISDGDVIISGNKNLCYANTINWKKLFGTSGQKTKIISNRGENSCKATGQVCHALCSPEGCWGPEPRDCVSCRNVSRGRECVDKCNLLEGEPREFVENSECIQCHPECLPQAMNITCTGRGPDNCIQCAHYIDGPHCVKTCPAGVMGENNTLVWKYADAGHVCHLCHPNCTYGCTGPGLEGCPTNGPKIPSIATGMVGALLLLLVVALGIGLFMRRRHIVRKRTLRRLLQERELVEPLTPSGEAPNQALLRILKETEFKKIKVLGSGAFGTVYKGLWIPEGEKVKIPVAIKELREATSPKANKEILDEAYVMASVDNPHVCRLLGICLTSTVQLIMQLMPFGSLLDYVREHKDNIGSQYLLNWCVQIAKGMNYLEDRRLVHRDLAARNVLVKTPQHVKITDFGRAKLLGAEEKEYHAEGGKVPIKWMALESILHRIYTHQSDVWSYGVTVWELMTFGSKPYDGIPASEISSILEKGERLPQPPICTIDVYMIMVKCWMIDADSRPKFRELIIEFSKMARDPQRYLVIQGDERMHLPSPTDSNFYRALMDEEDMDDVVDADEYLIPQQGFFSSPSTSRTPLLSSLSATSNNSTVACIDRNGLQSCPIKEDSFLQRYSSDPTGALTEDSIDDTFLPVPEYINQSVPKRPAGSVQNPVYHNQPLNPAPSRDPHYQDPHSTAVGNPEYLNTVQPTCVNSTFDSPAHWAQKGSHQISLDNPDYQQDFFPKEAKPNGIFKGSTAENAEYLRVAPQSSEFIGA
- stated.conditions: dose 300.0 nM
value.kind: inhibition (%)

COc1cc(N(C)C)c(NC(=O)c2ccncc2OC)cc1Nc1nccc(-c2cn(C)c3ccccc23)n1; 7.9
COc1cc(F)c(NC(=O)c2cnccn2)cc1Nc1nccc(-c2cn(C)c3ccccc23)n1; 9.7
COc1cc(F)c(NC(=O)c2ccnc(O)c2)cc1Nc1nccc(-c2cn(C)c3ccccc23)n1; 10.6

Each recorded value in this set is attributed to ChEMBL document CHEMBL5137051.
